Attribution: patent US3995044A

Tested on: "Atypical mycobacteria" Runyon Grouping 3
assay.details: Anti-mycobacterial spectrum of action (MIC), atypical mycobacteria Runyon grouping 3
Format: cell-based
experimental.parameters: modified Difco-Tb-Bouillon
quantity.measured: MIC (µg/mL)
Report only the number, with the unit µg/mL understood.

Before answering, review these 4 worked examples.
>  <compound>
O=C(NCc1ccc2ccccc2n1)c1cc([N+](=O)[O-])cc([N+](=O)[O-])c1

>  <units.of.measure>
µg/mL

>  <MIC>
1.6

$$$$
>  <compound>
O=C(NCc1ccccn1)c1cc([N+](=O)[O-])cc([N+](=O)[O-])c1

>  <units.of.measure>
µg/mL

>  <MIC>
50

$$$$
>  <compound>
Cc1cccc(CNC(=O)c2cc([N+](=O)[O-])cc([N+](=O)[O-])c2)n1

>  <units.of.measure>
µg/mL

>  <MIC>
25

$$$$
>  <compound>
CC(NC(=O)c1cc([N+](=O)[O-])cc([N+](=O)[O-])c1)c1ccccn1 (stereo not shown)

>  <units.of.measure>
µg/mL

>  <MIC>
100

$$$$

Attention now shifts to the item below.
QUERY: Query MIC for O=C(NCC1CCCO1)c1cc([N+](=O)[O-])cc([N+](=O)[O-])c1 (stereo not shown)
RESULT: 100
